The values you see were collected from patent US7038049B2.

system: MOLT-3 human leukemia cells; assay: MTT cytotoxicity assay, MOLT-3; assay type: cell-based; settings: Homo sapiens, MOLT-3, Table 3, iodide substituted, 24–36 hours
pIC50: −log10 of the molar value.
Each entry below carries its reported pIC50.
OBSERVED PROPERTY: pIC50

INSERT INTO assay_data (molecule, assayed_target, comparison_symbol, measured_number) VALUES
  ('COc1cc2ncnc(Nc3cccc(I)c3)c2cc1OC [HI-P271]', 'MOLT-3 human leukemia cells', '=', 5.02),
  ('COc1cc2ncnc(Nc3ccc(O)c(I)c3)c2cc1OC [HI-P299]', 'MOLT-3 human leukemia cells', '=', 4.22),
  ('COc1cc2ncnc(Nc3cc(I)c(O)c(I)c3)c2cc1OC [HI-P294]', 'MOLT-3 human leukemia cells', '<', 3.60),
  ('COc1cc2ncnc(Nc3ccccc3I)c2cc1OC [HI-P270]', 'MOLT-3 human leukemia cells', '=', 4.10),
  ('COc1cc2ncnc(Nc3ccc(I)cc3)c2cc1OC [HI-P300]', 'MOLT-3 human leukemia cells', '=', 4.23);
